Measured Plat accompanies every entry in the list below.
# Organism: Rattus norvegicus
# runDescription: Open TG-GATES - Regimen: Single
# Assay type: toxicity, organism-based, Sprague-Dawley
# Set-up: regimen Single, gender Male, age 6 weeks
# appliedConditions: in vivo, po, 10 mg/kg, 6 h, tissue Blood, route gavage, dose level Low
testReadout: Plat (x10_4/uL)

                                 smilesdata  quantityunit  reportedresult
0             CN(C)CCCN1c2ccccc2CCc2ccccc21      x10_4/uL           108.4
1         CN(C)CCCN1c2ccccc2CCc2ccc(Cl)cc21      x10_4/uL           119.7
2                CN(C)CCN(Cc1cccs1)c1ccccn1      x10_4/uL           119.7
3  CC1=C(/C=C/C(C)=C/C=C/C(C)=C/CO)C(C)(C)CCC1      x10_4/uL           119.1
